biological target: Xenopus IRBP Module 3 (Xenopus laevis, UniProt Q7SZI7); construct: cDNAs corresponding to the full-length IRBP, module 1, and module 2 were expressed in pThioHis; modules 3 and 4 were expressed in pTrxFus; made in house; host or cells: E. coli GI724 / GI698 (pTrxFus); experiment: Fluorometric titration (enhancement, quenching); assay type: binding; conditions: all-trans retinol fluorescence enhancement, ex 330 nm, em 480 nm; read-out: Kd, Enhancement
reportedEndpoint: pKd
Scale note: pKd = -log10(concentration in M).

# get_value(readout='pKd', item= CC1=C(/C=C/C(C)=C/C=C/C(C)=C/CO)C(C)(C)CCC1 [all-trans retinol] )
5.93

###

biological target: X(1,2)IRBP (Xen IRBP modules 1&2) (Xenopus laevis, UniProt Q7SZI7)
reportedEndpoint: Kd (nM)
Express the result in nM but write the number alone.

Form entry - test system: X(1,2)IRBP (Xen IRBP modules 1&2) (Xenopus laevis, UniProt Q7SZI7); read-out: Kd; molecule: CC1=C(/C=C/C(C)=C/C=C/C(C)=C/CO)C(C)(C)CCC1 [all-trans retinol]
49

###

target: Xenopus IRBP Module 3 (Xenopus laevis); construct: cDNAs corresponding to the full-length IRBP, module 1, and module 2 were expressed in pThioHis; modules 3 and 4 were expressed in pTrxFus; made in house; host or cells: E. coli GI724 / GI698 (pTrxFus); test: Fluorometric titration (enhancement, quenching); format: binding; conditions: quenching by 9-AS, ex 280 nm, em 340 nm; read-out: Kd, Quenching
reportedEndpoint: Kd (nM)
The reply should contain only the number, in nM.

State the recorded Kd for this entry: CCCCCCCCCC(CCCCCCCC(=O)O)OC(=O)c1c2ccccc2cc2ccccc12 (stereo not shown)
190

###

biological target: Xenopus IRBP Module 3 (Xenopus laevis, UniProt Q7SZI7); construct: cDNAs corresponding to the full-length IRBP, module 1, and module 2 were expressed in pThioHis; modules 3 and 4 were expressed in pTrxFus; made in house; host or cells: E. coli GI724 / GI698 (pTrxFus); assay: Fluorometric titration (enhancement, quenching); format: binding; settings: quenching by all-trans retinol, ex 280 nm, em 340 nm; read-out: Kd, Quenching
reportedEndpoint: Kd (nM)
Reply numerically in nM, unit not repeated.

Reported Kd, compound CC1=C(/C=C/C(C)=C/C=C/C(C)=C/CO)C(C)(C)CCC1 [all-trans retinol] : ____
310

###

molecular target: full-length Xenopus IRBP (Xenopus laevis); construct: We expressed the full-length IRBP as well as its individual modules as thioredoxin-fusion proteins using pTrxFus and pThioHis vectors; made in house; host or cells: E. coli Top10 (pThioHis); test: Competitive fluorescence titration of all-trans retinol with 11-cis retinaldehyde; type: binding; details: competition, in presence of fixed concentrations of 11-cis retinaldehyde; read-out: Kd All-trans retinol
reportedEndpoint: Kd (nM)
Field format: number, assumed nM, no unit text.

Recorded Kd for CC1=C(/C=C/C(C)=C/C=C/C(C)=C/CO)C(C)(C)CCC1 [all-trans retinol] , please?
220

###

Biological target: Xenopus IRBP Module 2 (Xenopus laevis)
Construct: cDNAs corresponding to the full-length IRBP, module 1, and module 2 were expressed in pThioHis; modules 3 and 4 were expressed in pTrxFus; made in house; host or cells: E. coli Top10 (pThioHis)
Sequence (Q7SZI7 319-617 limits assumed): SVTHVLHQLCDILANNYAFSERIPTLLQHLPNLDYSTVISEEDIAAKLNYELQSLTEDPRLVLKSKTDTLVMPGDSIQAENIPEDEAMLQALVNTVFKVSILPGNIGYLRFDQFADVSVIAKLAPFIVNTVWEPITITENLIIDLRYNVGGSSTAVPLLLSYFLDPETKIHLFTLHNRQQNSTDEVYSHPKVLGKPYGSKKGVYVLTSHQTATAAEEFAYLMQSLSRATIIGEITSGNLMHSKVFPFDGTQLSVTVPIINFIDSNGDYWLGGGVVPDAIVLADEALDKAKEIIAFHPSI
Assay: Competitive fluorescence titration of all-trans retinol with 11-cis retinaldehyde
Type: binding
Details: competition, in presence of 11-cis retinal; protein 1.10 μM; read-out: Kd All-trans retinol
reportedEndpoint: Kd (µM)
Provide the reading as a plain figure in µM.

Query for Xenopus IRBP Module 2 (Xenopus laevis): what Kd does the record show for CC1=C(/C=C/C(C)=C/C=C/C(C)=C/CO)C(C)(C)CCC1 [all-trans retinol] ?
0.074
